Test System: wild-type nAChR α7 receptors (Homo sapiens)
Construct: expressed in transfected cells; host or cells: Xenopus laevis oocytes
Sequence (P36544 23-502): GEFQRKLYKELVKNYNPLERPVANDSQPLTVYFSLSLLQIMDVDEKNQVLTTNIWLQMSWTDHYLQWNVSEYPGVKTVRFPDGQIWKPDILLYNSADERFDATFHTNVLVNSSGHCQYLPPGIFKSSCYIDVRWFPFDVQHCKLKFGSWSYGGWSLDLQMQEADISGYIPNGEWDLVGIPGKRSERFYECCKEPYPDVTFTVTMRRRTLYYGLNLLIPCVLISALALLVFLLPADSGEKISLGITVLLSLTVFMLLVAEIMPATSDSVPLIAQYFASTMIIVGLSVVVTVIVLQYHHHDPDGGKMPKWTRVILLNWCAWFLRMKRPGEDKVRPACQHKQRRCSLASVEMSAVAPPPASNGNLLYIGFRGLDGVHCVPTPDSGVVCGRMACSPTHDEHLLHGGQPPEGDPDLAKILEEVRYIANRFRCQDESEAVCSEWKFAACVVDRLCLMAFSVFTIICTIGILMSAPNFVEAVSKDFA
Method Notes: Positive modulation of wild-type nAChR α7 receptors expressed in Xenopus laevis oocytes, two-electrode voltage clamp
Assay type: cell-based
Measurement Parameters: maximal modulation of the control response to 100 μM acetylcholine, (test-control)/control×100%, from fitted concentration response curve; read-out: EC50 Imax
Label condition met when Emax is at or above 30%; anything below gets condition not met.

COc1ccc(-n2c(=O)[nH]c3c(-c4ccc(C(F)(F)F)cc4F)ncnc32)cc1 :: condition not met
COc1ccc(-n2nnc3c(-c4ccc(C(F)(F)F)cc4F)ncnc32)cc1 :: condition not met
COc1ccc(-n2cnc3c(-c4ccc(C(F)(F)F)cc4F)ncnc32)cc1 :: condition met
O=c1[nH]c2c(-c3ccc(C(F)(F)F)cc3F)ncnc2n1-c1ccc(O)cc1 :: condition met
NS(=O)(=O)c1ccc(-n2cnc3c(-c4ccc(C(F)(F)F)cc4F)ncnc32)cc1 :: condition met
Oc1ccc(-n2nnc3c(-c4ccc(C(F)(F)F)cc4F)ncnc32)cc1 :: condition not met
Oc1ccc(-n2cnc3c(-c4ccc(C(F)(F)F)cc4F)ncnc32)cc1 :: condition met

Attribution: patent US20110269778A1
